Some variants, each annotated with its measured protein stability index.
B1: INTS3 (parent)
chain: YPPLEGHVRQGVFSSLNHIVEKRV

variants of: B1; assay: protein stability index of a GFP-peptide fusion (GPS, HEK-293T) (PSI 1-6); higher = more stable; details: c terminus: a fixed tail appended;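 note: lentivirally expressed fusions sorted by FACS into six bins by GFP to DsRed ratio, PSI derived from sequencing read proportions per bin multiplied by bin number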
I only need the number, thanks.

P3Q	2.87
E5A	2.52

Problem: I have this variant here, I19Y , and I need its recorded protein stability index.
Solution: 2.07

Problem: # lookup: protein stability index of P2S
Solution: 1.97

Problem: I am curious: what protein stability index value has been reported for F13C ?
Solution: 2.98

Problem: Which protein stability index is reported for this variant? P2L
Solution: 2.7

Problem: What value of measured protein stability index is listed for E21N ?
Solution: 2.21

Problem: Name the recorded protein stability index for H18L .
Solution: 1.77

Problem: May I ask what protein stability index has been recorded for Q10H ?
Solution: 2.69

Problem: I am curious: what protein stability index value has been reported for L4D ?
Solution: 2.46

Problem: I am curious: what protein stability index value has been reported for L4K ?
Solution: 2.64

Problem: Consider the variant shown here: V24H What is its recorded protein stability index?
Solution: 2.29
